Data credit: the supplement of paper PMC10702517

Experiment: chemical recovery into PDMS from spiked human plasma; higher = better extraction
Conditions: pooled human plasma; extraction method: PES with PDMS; equilibration time (d): 3
chemical recovery into PDMS for assorted compounds
Outcome measure: chemical recovery into PDMS (%)

| Compound | Outcome measure | Unit tag | Result value |
| --- | --- | --- | --- |
| CCCCCCCCc1cccc(Nc2ccccc2)c1CCCCCCCC | chemical recovery into PDMS | % | 5.97 |
| CCOC(=O)c1ccc(N)cc1 | chemical recovery into PDMS | % | 23.3 |
| CC(=O)[C@@]1(O)CC[C@H]2[C@@H]3CCC4=CC(=O)CC[C@]4(C)[C@H]3CC[C@@]21C [17alpha-Hydroxyprogesterone] | chemical recovery into PDMS | % | 12.2 |
| COC(=O)Nc1nc2ccccc2[nH]1 | chemical recovery into PDMS | % | 25.7 |
| CC1CCc2cc(F)cc3c(=O)c(C(=O)O)cn1c23 (stereo not given) | chemical recovery into PDMS | % | 2.26 |
| CN[C@H]1CC[C@@H](c2ccc(Cl)c(Cl)c2)c2ccccc21 | chemical recovery into PDMS | % | 0.434 |
| CCNc1nc(NC(C)C)nc(SC)n1 | chemical recovery into PDMS | % | 20.6 |
| O=C1CC2(CCCCC2)CN1 | chemical recovery into PDMS | % | 28.5 |
| Cc1c(C(C)C)c(=O)n(-c2ccccc2)n1C | chemical recovery into PDMS | % | 22 |
| CC(C)c1ccc2sc3ccccc3c(=O)c2c1 | chemical recovery into PDMS | % | 48.5 |
